# composite z-score per entry
Biological target: Calmodulin-1 (Homo sapiens) (UniProt P0DP23)
Assay: calcium-bound CALM1 binders on microarrays, profiling panel, artefact control for SMM control-protein annotation, biochemical, small-molecule microarray, Cy5-labelled CALM1, plus calcium (AID 1112);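 further: score merges spot fluorescence with signal to noise from triplicate slides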
Details: Cy5-CALM1 binding fluorescence, higher = more signal
Returns: the value as a bare number; no unit string appended.

CCOC(=O)C[C@H]1[C@H](OC(=O)Cc2ccc3c(c2)OCO3)[C@@H](NC(=O)C2CCCCC2)c2cc(OCCCO)ccc2N1C(=O)Cc1ccc(OC)cc1 | -0.629

Entry O=C1OCCC=C[C@H]2OC34C=CCN(Cc5ccccc5)C(=O)[C@H]3N(CCCCCO)C(=O)[C@@H]4C12 (stereo partly drawn) — recorded composite z-score = 0.13

Kindly note the recorded composite z-score for Cc1cc(C)cc(N2C(=O)CS(=O)(=O)C2c2cccc([N+](=O)[O-])c2)c1 (stereo not drawn) , which is 0.395

====

Assay: basal RPMI8226 mitochondrial membrane potential changes, profiling panel, cell-based, JC-1 fluorescence, 24 h, 100 nL compound (AID 1169); further: test concentration not given here
Conditions: RPMI8226 myeloma, JC-1 mitochondrial potential fluorescence, higher = more signal
In this section, each of the compounds is paired with its reported z-score.
# output: bare number, no unit

O=C(OCCF)C1=CCC(c2cccc(Cl)c2)O1 (stereo not drawn) | -1.07

Lab note: measured z-score of "CC(=CC1CCCCC1)[C@@H](NC(=O)c1ccc(C(F)(F)F)cc1)c1ccc(-c2ccccc2)cc1" was -0.515

GET /value?item= "Cc1ccc(S[C@]2(C(=O)O)CC(=O)N(C3Cc4ccccc4C3)[C@@H]2c2ccc(CO)cc2I)cc1" &field=z-score returns -0.137

====

Biological target: Dihydroorotate dehydrogenase (quinone), mitochondrial (Plasmodium falciparum (isolate 3D7))
Assay: PfDHODH enzyme inhibitors, primary screen, biochemical, C-terminal His tag, absorbance 600 nm (AID 1175);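 further: recombinant parasite enzyme with a five histidine tag at its C terminus; test concentration not given here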
Details: DCIP absorbance 600 nm, higher = more signal, called active from +8 up or from −8 down
The source made the active and inactive calls.
Listed next: entries and their corresponding composite z-score.

Solved cases below.
CO[C@H]1O[C@H](CO)[C@@H](OC(=O)Nc2ccc(Oc3ccccc3)cc2)[C@H](OC(=O)Nc2ccccc2)[C@H]1OC(=O)Nc1ccccc1 | -0.996 (inactive)
CN1CCC(CCCO)=CC1c1ccc(CN2CCCC2)cc1 (stereo unspecified) | -0.27 (inactive)
CCCNC(=O)[C@@H]1c2ccccc2C(=O)N(Cc2ccccc2)[C@H]1c1ccc(CO)cc1 | 0.939 (inactive)
C[N+](C)(C)CCCCCCNC(=O)[C@H]1C[C@H]2C(=O)N3CCC[C@H]3C(=O)N2[C@H]1c1ccc(O)cc1 | -2.18 (inactive)
[N-]=[N+]=Nc1ccccc1[C@H]1OC(c2ccc(OCCCO)cc2)=N[C@@]1(CCS(=O)(=O)c1ccccc1)C(=O)O | 0.737 (inactive)

# next compound below
Please fill in: composite z-score reported for "O=C1O[C@@H](c2ccccc2)[C@@H](c2ccccc2)N2[C@@H](c3ccc(O)cc3)[C@]3(C(=O)Nc4ccc(C#CC5(O)CCCCCC5)cc43)[C@@H](C(=O)N3CCCCCCC3)[C@H]12" = 0.916 (inactive)

====

Molecular target: E3 ubiquitin-protein ligase XIAP (Homo sapiens) (UniProt P98170)
Sequence (P98170 whole entry, looked up): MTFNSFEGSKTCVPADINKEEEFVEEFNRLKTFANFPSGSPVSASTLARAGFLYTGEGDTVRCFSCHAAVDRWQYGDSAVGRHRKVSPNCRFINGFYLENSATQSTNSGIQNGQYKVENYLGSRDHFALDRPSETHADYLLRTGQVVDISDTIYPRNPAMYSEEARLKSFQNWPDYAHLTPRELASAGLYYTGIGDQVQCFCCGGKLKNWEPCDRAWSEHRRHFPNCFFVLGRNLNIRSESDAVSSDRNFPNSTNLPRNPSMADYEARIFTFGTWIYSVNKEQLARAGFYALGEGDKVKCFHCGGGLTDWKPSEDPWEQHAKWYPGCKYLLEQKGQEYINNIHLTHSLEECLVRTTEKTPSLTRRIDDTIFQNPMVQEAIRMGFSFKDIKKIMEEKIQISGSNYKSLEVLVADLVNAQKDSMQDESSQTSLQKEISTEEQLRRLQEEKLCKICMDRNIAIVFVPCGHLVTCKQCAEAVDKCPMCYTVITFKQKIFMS
Assay: XIAP binders, primary screen, biophysical, small-molecule microarray, fluorescence 635 nm (AID 1181);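 further: score merges 667 nm emission and signal to noise over triplicate slides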
Settings: small-molecule microarray binding, higher = more signal
Binary classification by composite z-score, with 0.2 as an inclusive lower bound for rule met; all other cases are rule not met.

O=C(CS)NCCCCCCNC(=O)[C@H]1C[C@H]2C(=O)NCC(=O)N2[C@H]1c1ccc(O)cc1 | rule not met
COc1ccc(C(O)C2C=CC3C(=O)N(C)C(=O)C3N2Nc2ccccc2)cc1OCc1ccccc1 (configuration not stated) | rule met
Cc1ccc([C@H]2C(C(=O)O)=C[C@@H](C)N2S(=O)(=O)c2ccc(C)cc2)cc1 | rule met
[N-]=[N+]=NCc1ccccc1C[C@]1(C(=O)O)N=C(c2ccc(OCCCO)cc2)O[C@H]1c1ccccc1 | rule not met
COC(=O)c1ccc(C(O)C2C=CC3C(=O)N(C)C(=O)C3N2NC(=O)OC(C)(C)C)o1 (configuration not stated) | rule met

Ask: Assess whether reported composite z-score for "CC(C)C[C@@H]1NC(=O)[C@H]2C[C@@H](C(=O)NCCCCCNC(=O)CS)[C@@H](c3cccc(OCCO)c3)N2C1=O" sits at 0.2 or higher.
Result: rule met

Ask: Quick check: does "CC(C)NC(=O)[C@@]1(Cc2ccccc2I)c2ccccc2C(=O)N(Cc2ccccc2)[C@H]1c1ccc(CO)cc1" have composite z-score greater than or equal to 0.2?
Result: rule not met

Source: PubChem BioAssay
